Tested on: DU-145
Experiment: NCI tumour cell line growth inhibition, 48 h
Activity calls are given as the source filed them. Rule as the data show it: active = GI50 up to about 1.1 µM and inactive = higher.
Pick one: active, inactive

// known answers, use as guide
{"COMPOUND": "CC(C)(C)NCc1cc(C(C)(C)C)cc(-c2ccc(Cl)cc2)c1O", "MEASURED TARGET": "DU-145", "ASSIGNED CATEGORY": "inactive"}
{"COMPOUND": "Clc1cccc2[nH]ncc12", "MEASURED TARGET": "DU-145", "ASSIGNED CATEGORY": "inactive"}
{"COMPOUND": "CCN(CC)CC(=O)Nc1c(C(N)=O)nnn1Cc1cc(Cl)c(C(=O)c2ccc(Cl)cc2)c(Cl)c1", "MEASURED TARGET": "DU-145", "ASSIGNED CATEGORY": "inactive"}
{"COMPOUND": "C=C(C)COC(=O)COCC(=O)OCC(=C)C", "MEASURED TARGET": "DU-145", "ASSIGNED CATEGORY": "inactive"}
{"COMPOUND": "C/C(O)=C/C(=O)c1[nH]c(C(=O)O)cc1C1CCN(Cc2ccccc2)C1=O (centres undefined)", "MEASURED TARGET": "DU-145", "ASSIGNED CATEGORY": "inactive"}

Data request: What was the test verdict on C[N+](C)(CCNC(=O)c1cccc2cc3ccccc3nc12)Cc1ccc([N+](=O)[O-])cc1 ?
Data returned: inactive

Data request: What was the test verdict on O=C(Cn1c(C(=O)c2ccccc2)nc2ccccc21)c1ccccc1 ?
Data returned: inactive

Data request: What was the test verdict on CC1(C)CC2C(=O)c3ccccc3NC2c2ccccc21 (centres undefined) ?
Data returned: inactive

Data request: What was the test verdict on CC(=O)Nc1c(C(=N)C#N)ncn1CCO ?
Data returned: inactive

Data request: What was the test verdict on Oc1ccc(/C=C\c2nnc(/C=C\c3ccc(O)c(O)c3)s2)cc1O ?
Data returned: inactive

Data request: What was the test verdict on O=S(=O)(O)c1cc(S(=O)(=O)O)c2c(/N=N/c3ccc(S(=O)(=O)O)c4ccccc34)c(O)ccc2c1 ?
Data returned: inactive

Data request: What was the test verdict on COc1ccc(C(=O)NCCN(C)C)c2nc3ccccc3cc12 ?
Data returned: active

Data request: What was the test verdict on CCOC(=O)N/N=C(/N)c1cccc([N+](=O)[O-])c1 ?
Data returned: inactive

Data request: What was the test verdict on C/C(=C/C(=O)Nn1c(Cc2ccccc2)n[nH]c1=O)C(=O)O ?
Data returned: inactive

Data request: What was the test verdict on CSC(=Nc1nnc(-c2ccc([N+](=O)[O-])cc2)s1)SC ?
Data returned: inactive

Data request: What was the test verdict on CCOC(=O)C1C(=O)CC(O)(OCC)C(C(=O)OCC)C1c1ccc(OC)cc1 (centres undefined) ?
Data returned: inactive

Data request: What was the test verdict on CC(=O)OC1=CC2=CC[C@H]3[C@@H]4CCC(=O)[C@@]4(C)CC(=O)[C@]3(S)[C@@]2(C)CC1 ?
Data returned: inactive

Data request: What was the test verdict on [N-]=[N+]=NC[C@H]1OCO[C@H](CN=[N+]=[N-])[C@@H](OCCOCCCl)[C@@H]1OCCOCCCl ?
Data returned: inactive

Data request: What was the test verdict on Cc1ccc(C2=NN=C3C(c4ccccc4)=Nc4ccccc4N3C2)cc1 ?
Data returned: inactive

Data request: What was the test verdict on Cc1cc(N(CCC#N)CCC#N)ccc1/C=C(\NC(=O)/C=C/c1ccccc1)C(=O)NN ?
Data returned: inactive

Data request: What was the test verdict on O=C1C=CC2(O[C@H](c3ccccc3)[C@@H](c3ccccc3)O2)[C@H](Sc2ccccc2O)C1 ?
Data returned: inactive

* * *

System: UACC-257
Assay: NCI tumour cell line growth inhibition, 48 h
Activity calls are given as the source filed them. Rule as the data show it: active = GI50 up to about 1.1 µM and inactive = higher.
Give GI50 for every item shown.

The examples below pair each entry with its known result.
{"MOLECULE": "CC(=O)OC1=CC2=CC[C@H]3[C@@H]4CCC(=O)[C@@]4(C)CC(=O)[C@]3(S)[C@@]2(C)CC1", "PARAMETER": "GI50", "RECORDED RESULT": "27.3 µM (inactive)"}
{"MOLECULE": "Cc1nc2nn[nH]n2c(=O)c1CCO", "PARAMETER": "GI50", "RECORDED RESULT": "> 100 µM (inactive)"}
{"MOLECULE": "CC(=O)NC1CONC1=O (configuration not stated)", "PARAMETER": "GI50", "RECORDED RESULT": "> 100 µM (inactive)"}

Please state GI50 for every molecule in the list that follows.
1. N#Cc1c(N)c(C#N)c2c(c1-c1ccc(Cl)cc1)COc1ccccc1-2
2. CN(C)CCNc1ccc2c(=O)n(CCN(C)C)c(=O)n3c4ccc([N+](=O)[O-])cc4c(=O)c1c23
3. O=c1[nH]cnc2c(COCCO)c[nH]c12

Data returned:
["44.1 µM (inactive)", "0.728 µM (active)", "> 100 µM (inactive)"]

Please state GI50 for every molecule in the list that follows.
1. Nc1nc(N)c2nnn(C[C@H]3CC[C@@H](CO)C3)c2n1
2. Cc1n[n+]([O-])c(C)cc1[N+](=O)[O-]
3. CCCCCCCCCc1cc(-c2ccc(C=O)s2)sc1-c1ccc(C=O)s1
4. Cc1ccc(NC(=O)C(=O)C2C(=O)NC(=O)NC2=O)c(C)c1
5. COc1cc([N+](=O)[O-])c(S(=O)(=O)O)cc1-n1nc(C(=O)Nc2ccccc2)n[n+]1-c1cc(S(=O)(=O)[O-])c([N+](=O)[O-])cc1OC
6. CN(C(=O)C12C3C4C1C1C2C3C41I)C(C)(C)C (configuration not stated)
7. CC(C)N1CCOC(c2ccc(O)c(O)c2)C1 (configuration not stated)
8. NC(=O)c1cccc(/N=c2\oc3ccc(Br)cc3cc2-c2nc3ccccc3[nH]2)c1

Data returned:
1. > 100 µM (inactive)
2. 15.6 µM (inactive)
3. 13.6 µM (inactive)
4. > 100 µM (inactive)
5. > 100 µM (inactive)
6. > 88.5 µM (inactive)
7. > 100 µM (inactive)
8. 20 µM (inactive)

Please state GI50 for every molecule in the list that follows.
1. CC1(C)OCC2(CO1)CSCCCSCC1(COC(C)(C)OC1)CSCCCSC2
2. C=CC(C)(C)c1c(OC)oc2ccc(OC)c(C)c2c1=O
3. O=C(Nc1ccc([N+](=O)[O-])cc1C(=O)O)c1ccc([N+](=O)[O-])cc1
4. C1CSC2=C(S1)SC1=C(S2)SC(=C2SC3=C(SC4=C(SCCS4)S3)S2)S1
5. CC(=O)OC1=C(CC(C)(C)C)C(=O)c2ccccc2C1=O

Data returned:
1. > 100 µM (inactive)
2. > 100 µM (inactive)
3. 40 µM (inactive)
4. > 100 µM (inactive)
5. 38.5 µM (inactive)

Please state GI50 for every molecule in the list that follows.
1. O=C(O)Cn1cnc2c(O)nc(Nc3ccccc3)nc21
2. CCOCC(=O)N(C)c1cccc2c3c(n(C)c12)CCCCC3
3. CCCCNc1nc2ccccc2c2c1ncn2CC(C)C

Data returned:
1: > 100 µM (inactive); 2: 1 µM (active); 3: > 100 µM (inactive)

* * *

System: Malme-3M
Assay: NCI tumour cell line growth inhibition, 48 h
Calls of active or inactive are those of the source. Cut-off read from the data, not from the text of the source: active = GI50 up to about 1.1 µM and inactive = higher.
Pick one: 1 = active, 0 = inactive

// known answers, use as guide
{"MOLECULE": "CN(C(=O)C12C3C4C1C1C2C3C41I)C(C)(C)C (stereo unspecified)", "ASSIGNED CATEGORY": 0}
{"MOLECULE": "O=C(Nc1cc(Cl)cc(Cl)c1)/C(Cc1nc2ccccc2nc1O)=N/NC(=O)c1ccncc1", "ASSIGNED CATEGORY": 0}
{"MOLECULE": "CCOC(=O)N/N=C(/N)c1cccc([N+](=O)[O-])c1", "ASSIGNED CATEGORY": 0}

Data request: What was the test verdict on Cc1ncc(CSC(=N)N)n1Cc1ccccc1 ?
Data returned: 0

Data request: What was the test verdict on COc1ccc(/C=C/C(=O)Oc2ccccc2OC)cc1 ?
Data returned: 0

Data request: What was the test verdict on C/C(=C/C(=O)Nn1c(Cc2ccccc2)n[nH]c1=O)C(=O)O ?
Data returned: 0

Data request: What was the test verdict on COc1cc2c(c(OC)c1OC)-c1ccc(SC)c(=O)cc1[C@@H](OC(C)=O)CC2 ?
Data returned: 1

Data request: What was the test verdict on COc1cccc(C2CC(C)(O)Oc3cc4c(cc32)OCO4)c1O (stereo unspecified) ?
Data returned: 0

Data request: What was the test verdict on O=C1CC(NCc2ccccc2)c2c(Cl)sc(Cl)c21 (stereo unspecified) ?
Data returned: 0

Data request: What was the test verdict on NNS(=O)(=O)c1cc(C(=O)O)cc(C(=O)O)c1 ?
Data returned: 0

Data request: What was the test verdict on CC1CCCc2c(CC3CC(=O)NC(=O)C3)n[nH]c21 (stereo unspecified) ?
Data returned: 0

Where do these numbers come from? They come from ChEMBL document CHEMBL1201862.
